Source: ChEMBL document CHEMBL1201862

# System: MDA-MB-231
# METHOD DESCRIPTION: NCI tumour cell line growth inhibition, 48 h
Calls of active or inactive are those of the source. Rule as the data show it: active = GI50 up to about 1.1 µM and inactive = higher.
GI50 values by entry

MOLECULE: COc1ccc(C(=O)NCCC2CN(S(=O)(=O)C(F)(F)F)c3ccccc32)c(OC)c1 (stereo unspecified)
GI50: > 100 µM (inactive)

MOLECULE: Cc1ccc(S(=O)(=O)c2scc(-c3ccccc3)c2C)cc1
GI50: > 100 µM (inactive)

MOLECULE: CC(=O)/C=C1\Nc2ccccc2N\C1=C/C(C)=O
GI50: 22 µM (inactive)

MOLECULE: CC1=NN(C(=O)CC(=O)Nc2ccc(C)cc2)C(=O)C1/N=N/c1ccc(C(=O)O)cc1 (stereo unspecified)
GI50: > 100 µM (inactive)

MOLECULE: Cc1c[n+]([O-])c2ccccc2[n+]1[O-]
GI50: > 100 µM (inactive)

MOLECULE: Cc1ccc(OCC2OC(n3cnc4nc(Cl)nc(Cl)c43)CC2Oc2ccc(C)cc2)cc1 (stereo unspecified)
GI50: 2.51 µM (inactive)

MOLECULE: Cc1nc(-c2cc3cc([N+](=O)[O-])ccc3oc2=O)cs1
GI50: 80.7 µM (inactive)

MOLECULE: C#CCNC(=O)NC(CCCCNC(=O)OCc1ccccc1)C(=O)OCc1ccccc1 (stereo unspecified)
GI50: > 39.2 µM (inactive)

MOLECULE: FC(F)(F)c1ccc2c(-c3cc[nH]c3)ccnc2c1
GI50: 40.1 µM (inactive)

MOLECULE: CNNC1=NS(=O)(=O)c2cc(C(=O)OC)c(Cl)cc2S1
GI50: > 10 µM (inactive)

MOLECULE: O=C1c2ccccc2NC(=S)[C@@H]2CCCN12
GI50: > 100 µM (inactive)
